The reported measurements were obtained from PubChem BioAssay.

# procedure summary: RAM signaling pathway blockade in yeast – S. cerevisiae, Pdr1DBD-CYC8 efflux-inhibited sensitized strain, primary screen (AID 1298);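 note: 0% = DMSO untreated cells without growth and 100% = 10 µM 1-NA-PP1 full growth; higher means more yeast growth rescued from 5-FOA killing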
# measurement setup: S. cerevisiae cbk1-as DSE1-URA3 strain, 5-FOA growth OD615, 2 d; at 50 µM; active compounds read high
endpoint label: RAM network inhibition (%)
Write the number in % without appending the unit.

| molecule | readout units | RAM network inhibition |
| --- | --- | --- |
| CCOC(=O)c1cc(-c2nnc(-c3ccc(Cl)cc3)o2)c(C)nc1C | % | 2.13 |
| O=C(NCCCNCc1ccccc1)c1ccc(/C=N/O)nc1 | % | 3.09 |
| Cc1c(NC(=O)C(C)N2C(=O)C3C4C=CC(C4)C3C2=O)c(=O)n(-c2ccccc2)n1C (stereo not drawn) | % | 2.56 |
| CC1CC(C)CN(C(=O)c2cn(C)c3ccc(S(=O)(=O)N(C)C)cc3c2=O)C1 (stereo not drawn) | % | 2.05 |

Dear colleague, I am looking for the recorded RAM network inhibition of the following molecule: Nc1nc(Nc2cccc(F)c2)nc2ccccc12
4.92

# lookup: RAM network inhibition of COCC(=O)Nc1ccc(C(N)=O)cc1
7.41

GET /values?readout=RAM network inhibition&item= CCOC(=O)C(C(=O)OCC)c1cc(Br)c2noc3c2c1C(=O)c1ccccc1-3
1.87

What RAM network inhibition value was documented for this molecule, CC(C)NS(=O)(=O)c1ccc(CCC(=O)NCc2ccco2)cc1 ?
-0.53

Please look up its RAM network inhibition: Cc1ccc(S(=O)(=O)Cc2ccc(C(=O)N3CCCCCC3)o2)cc1
8.33

Which RAM network inhibition is reported for this molecule? Cc1ccc(-c2noc(CN(C(=O)c3cccc(Br)c3)C(C)C)n2)cc1
10

Report RAM network inhibition for COc1ccc(-c2nc(C#N)c(NCCN(C)C)o2)cc1 please.
3.09

For CCOC(=O)Cn1c(C)nc2ccccc21 , what is its reported RAM network inhibition?
1.95

Entry under review: COc1ccc(N2C(=O)C3CCCN3C2c2ccccc2)cc1 (stereo not drawn) . Reported RAM network inhibition?
-0.32

Bench note: what RAM network inhibition did CC(C)c1nnc(NC(=O)CN2C(=O)c3ccccc3C2=O)s1 show?
3.84

----------
# procedure summary: Restrictive medium S. cerevisiae growth inhibition, OD615, pilot screen of yeast lifespan reduction project, restrictive growth control (AID 706);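 note: modified DeaD lifespan yeast strain shifted to restrictive glucose medium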
# measurement setup: OD615, 48 h, at 10 µM
Calls of active or inactive are those of the source.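 The calls were made as follows: active = growth inhibition above a set limit, 3 SD over mean compound inhibition, in both replicates (cut at about 43% in these data); inconclusive = above the limit in only one replicate; inactive = at or below the limit in both replicates.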
Allowed answers: 1.0 (active), 0.0 (inactive)

| compound | cat |
| --- | --- |
| N#CCCN1CCN(S(=O)(=O)c2ccc(S(=O)(=O)N3CCOCC3)cc2)CC1 | 0.0 |
| COC(=O)C(C)Sc1nnc(Cc2cc(=O)[nH]c(=O)[nH]2)n1-c1ccc(OC)cc1 (stereo not drawn) | 0.0 |
| O=C(NCc1ccccn1)C1CCN(S(=O)(=O)N2CCCC2)CC1 | 0.0 |
| O=C(NC1CCN(Cc2ccccc2)CC1)c1ccccc1F | 0.0 |
| N=c1sccn1CC(=O)Nc1ccccc1-c1ccccc1 | 0.0 |
| O=C(Cn1nc(Cc2cccnc2)c2ccccc2c1=O)NCc1ccc2c(c1)OCO2 | 0.0 |

Fill in: this test's call for CCn1c(N2CCC(C)CC2)nc2c1c(=O)n(C)c(=O)n2C is ___
0.0

Answer briefly: the call reported for COc1ccccc1NC(=O)CSc1nnnn1C in this assay.
0.0

Query: recorded result category for O=C(c1ccc(=O)[nH]c1)N(Cc1ccco1)C1(C(=O)NC2CCCCC2)CCCCC1 in this test
0.0

Hello, I am checking results. What call was entered for Cc1cccc(-c2noc(CCc3ccccc3)n2)c1 ?
0.0

Recorded test call requested for CCOC(=O)C1CCN(C(=O)c2ccc(Cl)c(NC3=NC4CS(=O)(=O)CC4S3)c2)CC1 (stereo not drawn)
0.0

Outcome logged for Cn1cc(SCC(=O)NCC2CCCO2)c2ccccc21 (stereo not drawn) in this assay:
0.0

Answer briefly: the call reported for COc1ccccc1NC(=O)Nc1ccnn1C1CCCCC1 in this assay.
0.0

Recorded test outcome, item COc1cc(C(c2sc3nc(C)nn3c2O)N2CCc3ccccc3C2)cc(OC)c1OC (stereo not drawn)
0.0

Just curious, what result did CCN1CCN(C(=O)Cn2ncc3c2-c2ccccc2OC3)CC1 get here?
0.0
